biological target: Recombinant androgen receptor ligand binding domain (AR LBD) (Homo sapiens); experiment: In vitro competitive radioligand binding assay with [3H]mibolerone
Sequence (P10275 669-900 limits assumed, species assumed): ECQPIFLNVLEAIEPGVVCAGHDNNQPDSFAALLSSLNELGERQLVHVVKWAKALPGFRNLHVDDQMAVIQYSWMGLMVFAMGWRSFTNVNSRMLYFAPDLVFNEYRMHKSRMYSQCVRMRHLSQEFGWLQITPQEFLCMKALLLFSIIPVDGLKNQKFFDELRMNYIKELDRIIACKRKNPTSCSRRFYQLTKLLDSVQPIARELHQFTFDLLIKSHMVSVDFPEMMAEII
propertyName: pKi
Numbers only, as −log10 of the molar value.

In: Value lookup for pKi; key = C[C@](O)(COc1ccc(C#N)cc1)C(=O)Nc1ccc(C#N)c(Cl)c1
Out: 7.43

====

assay: Metabolic stability measured in human liver microsomes; type: in vitro ADME; details: human, pH 7.4, human liver microsomes, Phase I only, read-out: CLint (μl/min/mg) Phase I only
propertyName: microsomal CLint at 0.6 μM

In: Look at this molecule and give its reported microsomal CLint at 0.6 μM. C[C@](O)(COc1ccc(C#N)cc1)C(=O)Nc1ccc(C#N)c(Cl)c1
Out: < 1 µL/min/mg

====

Assay: Pharmacokinetics in dogs
Format: in vivo
Settings: dog, plasma, oral; beagle dogs; read-out: t½, terminal elimination half-life (converted)
Procedure: In order to determine the pharmacokinetics of the S-isomer of the compound of formula (I) [S-(I)], the compound was administered to beagle dogs perorally, and circulating plasma levels, terminal elimination half-life (t1/2), total body clearance (CL), terminal volume distribution (Vz) and absolute bioavailability (F %) (Table 4) were determined.
propertyName: half-life (h)
Answers are plain numbers, in h.

In: Query (compound): C[C@](O)(COc1ccc(C#N)cc1)C(=O)Nc1ccc(C#N)c(Cl)c1 [S-(I)] ; field requested: half-life
Out: 10.4

====

Test: Metabolic stability measured in human liver microsomes
Format: in vitro ADME
Details: pH 7.4, Phase I + II
Description: Metabolic stability assays were performed in order to assess the in vitro half-life of the S-isomer of compound of formula (I) [S-(I)] when incubated with human liver microsomes. Intrinsic clearance values were extrapolated. Permeability of the compound across human, intestinal epithelial monolayers (Caco-2 cells) was assessed as a measure of intestinal permeability as well as an indicator of efflux potential. Caco-2 cells are often used as an early screening surrogate for oral bioavailability. […]
propertyName: half-life at 0.6 μM (h)
One number for each entry, in h.

In: Given the entry C[C@](O)(COc1ccc(C#N)cc1)C(=O)Nc1ccc(C#N)c(Cl)c1 , report its measured half-life at 0.6 μM.
Out: 5.81

====

target: CYP3A4 (Homo sapiens, UniProt P08684); test: CYP inhibition screening, recombinant enzyme (fluorescent-based) assay
Sequence (P08684 whole entry): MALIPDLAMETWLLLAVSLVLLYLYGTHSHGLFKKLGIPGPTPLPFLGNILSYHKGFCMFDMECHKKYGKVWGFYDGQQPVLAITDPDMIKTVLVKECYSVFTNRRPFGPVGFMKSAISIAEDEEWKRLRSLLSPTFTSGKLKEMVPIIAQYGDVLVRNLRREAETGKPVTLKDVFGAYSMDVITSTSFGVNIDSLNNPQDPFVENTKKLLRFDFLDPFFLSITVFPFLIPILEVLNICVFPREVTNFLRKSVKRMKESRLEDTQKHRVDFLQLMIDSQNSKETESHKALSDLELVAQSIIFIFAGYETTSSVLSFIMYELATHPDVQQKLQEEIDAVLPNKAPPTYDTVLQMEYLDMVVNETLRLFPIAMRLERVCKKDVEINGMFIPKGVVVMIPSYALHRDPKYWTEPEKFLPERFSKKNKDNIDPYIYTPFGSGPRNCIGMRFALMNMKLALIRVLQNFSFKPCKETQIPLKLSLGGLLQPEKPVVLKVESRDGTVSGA
I'd appreciate it if you could supply IC50 values for the items below.

structureString: C[C@](O)(COc1ccc(F)cc1)C(=O)Nc1ccc(C#N)c(C(F)(F)F)c1
IC50: > 20 µM
--
structureString: C[C@](O)(COc1ccc(C#N)cc1)C(=O)Nc1ccc(C#N)c(Cl)c1
IC50: > 20 µM

As a next step, examine the compound that follows.
In: Look at this compound and give its reported IC50. C[C@](O)(COc1ccc(Cl)cc1)C(=O)Nc1ccc(C#N)c(C(F)(F)F)c1
Out: > 20 µM

====

target: CYP2C9 (Homo sapiens); construct: purchased Gentest, BD Biosciences; assay: CYP inhibition screening, recombinant enzyme (fluorescent-based) assay; format: in vitro ADME; details: human, 30 min
Sequence (P11712 whole entry): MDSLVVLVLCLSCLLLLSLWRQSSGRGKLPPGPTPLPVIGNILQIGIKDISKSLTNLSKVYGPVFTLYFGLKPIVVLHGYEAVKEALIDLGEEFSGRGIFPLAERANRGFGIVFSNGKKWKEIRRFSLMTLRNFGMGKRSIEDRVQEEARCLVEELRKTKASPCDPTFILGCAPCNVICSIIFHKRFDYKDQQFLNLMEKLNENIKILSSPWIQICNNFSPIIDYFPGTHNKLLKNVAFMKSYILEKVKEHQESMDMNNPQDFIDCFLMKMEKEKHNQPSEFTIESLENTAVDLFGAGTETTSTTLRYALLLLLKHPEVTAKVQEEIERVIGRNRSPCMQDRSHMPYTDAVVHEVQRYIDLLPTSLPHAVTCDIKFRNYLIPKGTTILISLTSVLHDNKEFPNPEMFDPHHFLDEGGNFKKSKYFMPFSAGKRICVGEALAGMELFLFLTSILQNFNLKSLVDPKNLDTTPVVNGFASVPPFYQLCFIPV
propertyName: Inhibition of CYP2C9 activity (in words)

compound: C[C@](O)(COc1ccc(Cl)cc1)C(=O)Nc1ccc(C#N)c(C(F)(F)F)c1 [S-(II)]
propertyName: Inhibition of CYP2C9 activity (in words)
result: moderate inhibition
//
compound: C[C@](O)(COc1ccc(F)cc1)C(=O)Nc1ccc(C#N)c(C(F)(F)F)c1 [S-(III)]
propertyName: Inhibition of CYP2C9 activity (in words)
result: moderate inhibition

Data origin, for the record: patent US20180071242A1
